test name: Cell Viability - LYMP2-006 (AID 978);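 also: cells exposed to compound for 24 hours; % is scaled to controls: 0 for no effect and ±100 for the full control effect; nearly all actives have a fitted effect of over 60% in size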
measurement conditions: LYMP2-006 lymphoblastoid cell viability, qHTS; series mostly up to 92.2 µM
Records with an inconclusive call do not appear. Activity calls are given as the source filed them. Calls follow the shape of the dose curve; as a rule, active = well fitted cell-killing curve with a large enough effect; inconclusive = small, poorly fitted or top-dose-only effect; inactive = flat fitted curve, though single readings scatter.
result type: outcome

smiles entry | outcome
O=C(O)c1cc(=O)[nH]c(=O)[nH]1 | inactive
Cc1ncc([N+](=O)[O-])n1CCO | inactive
Cc1noc(NS(=O)(=O)c2ccc(N)cc2)c1C | inactive
NC(N)=NC(N)=NCCc1ccccc1 | inactive

I'd like to know its outcome. The compound in question is Cc1ccnc2c1NC(=O)c1cccnc1N2C1CC1
inactive

For O=C(N[C@H](CO)[C@H](O)c1ccc([N+](=O)[O-])cc1)C(Cl)Cl , what is its reported outcome?
inactive

Entry NNC(=O)c1ccncc1 : reported outcome = ?
inactive

What does the record list as outcome for CCc1cc(C(N)=S)ccn1 ?
inactive

Report outcome for CC1=NN(c2ccccc2)C(=O)C1 please.
inactive

* * *

test name: High-throughput drug toxicity screening in the BPDCN cell line Cal-1 (AID 1224825);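 also: cells exposed to compounds for 48 h; 100% = DMSO and 0% = bortezomib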
measurement conditions: Cal-1 BPDCN cell viability, qHTS; at 45.8 µM (top of the series) unless noted
# maps each entry to its viability (% of control)
Write the answer as a number in %, unit excluded.

compound | viability (% of control) (%)
CCN(CC)CCn1c(=O)c(Cc2ccc(OC)cc2)nc2ccccc21 | 94.1
Cc1cc(NS(=O)(=O)c2ccc(N)cc2)no1 | 82.3
O=C(O)c1cc(=O)[nH]c(=O)[nH]1 | 128
CCCCCCNC(=O)n1cc(F)c(=O)[nH]c1=O | 33.8
O[C@@H](CNC[C@H](O)[C@H]1CCc2cc(F)ccc2O1)[C@@H]1CCc2cc(F)ccc2O1 | 2.75
O=C(O)c1cccnc1 | 87.6

Sample COC(=O)Nc1nc2ccc(C(=O)c3ccccc3)cc2[nH]1 — what was its viability (% of control)?
22

Which viability (% of control) is listed for Cc1noc(NS(=O)(=O)c2ccc(N)cc2)c1C ?
96.8

# get_value(readout='viability (% of control)', item= Oc1c(Cl)cc(Cl)c2cccnc12 )
9.09

What measured viability (% of control) goes with Clc1ccccc1CN1CCc2sccc2C1 ?
45.9

State the recorded viability (% of control) for this entry: CC1=C(C(=O)O)N2C(=O)[C@@H](NC(=O)C(N)c3ccccc3)[C@H]2SC1 (stereo not given in full)
12.1

Can you share its viability (% of control)? I mean this compound: S=P(N1CC1)(N1CC1)N1CC1
27.1

Query: viability (% of control); subject: CC(C)OC(=O)C(C(=O)OC(C)C)=C1SC=CS1
94.2

Any idea what its viability (% of control) is? The compound is CC(C)Cn1cnc2c(N)nc3ccccc3c21
3.23

# get_value(readout='viability (% of control)', item= CCOC(=O)[C@H](CCc1ccccc1)N[C@H]1CS[C@H](c2cccs2)CN(CC(=O)O)C1=O )
14

Fill in the blank: the reported viability (% of control) of Cc1ccc(S(=O)(=O)N[C@@H](Cc2ccccc2)C(=O)CCl)cc1 is ____.
3.45

What value of viability (% of control) has been reported for the following compound? O=P(O)(O)C(O)(Cc1cccnc1)P(=O)(O)O
125

Item under review: COc1ccccc1OCC(O)COC(N)=O (stereo not given) . Reported viability (% of control)?
124

Query (compound): CCOC(=O)c1ccc(C#Cc2ccc3c(c2)C(C)(C)CCS3)nc1 ; field requested: viability (% of control)
47

* * *

test name: Cellular Toxicity (caspase-3) SHSY5Y (AID 657);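 also: cells exposed to compound for 16 hours at 37 °C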
measurement conditions: SH-SY5Y caspase-3 activation; series mostly up to 91.7 µM
The source made the active and inactive calls. Calls come from the whole dose curve; as a rule, active = well fitted activation curve with a large enough effect; inconclusive = small, poorly fitted or top-dose-only effect; inactive = flat fitted curve, though single readings scatter.
result type: outcome

Known outcome results, listed for orientation:
smiles entry | measured value
O=C(O)c1cc(=O)[nH]c(=O)[nH]1 | inactive
Cc1noc(NS(=O)(=O)c2ccc(N)cc2)c1C | inactive
CC1=NN(c2ccccc2)C(=O)C1 | inactive
C[C@]12C=CC(=O)C=C1CC[C@@H]1[C@@H]2C(=O)C[C@@]2(C)[C@H]1CC[C@]2(O)C(=O)CO | inactive
O=C(N[C@H](CO)[C@H](O)c1ccc([N+](=O)[O-])cc1)C(Cl)Cl | inactive

Now consider the entry below.
outcome lookup needed for NNC(=O)c1ccncc1 , thanks.
inactive

* * *

Test system: CP269
test name: qHTS profiling for inhibitors of Plasmodium falciparum proliferation (AID 504749); also: nearly all actives have a fitted effect of over 60% in size; also: potency is read from the fitted curve at half-maximal effect
measurement conditions: P. falciparum in erythrocytes, SYBR Green DNA, 72 h; series mostly up to 28.7 µM
Inconclusive results are not listed. Active and inactive are the calls of the source. Calls come from the whole dose curve; as a rule, active = well fitted inhibition curve with a large enough effect; inconclusive = small, poorly fitted or top-dose-only effect; inactive = flat fitted curve, though single readings scatter.
result type: Potency

Guide cases for Potency, answers given:
molecule | result type | measured value
COc1ccc(C(=O)CC(=O)c2ccc(C(C)(C)C)cc2)cc1 | Potency | inactive
COc1nc(N)nc2c1ncn2[C@@H]1O[C@H](CO)[C@@H](O)[C@@H]1O | Potency | inactive
CNC1CCCN(c2c(F)cc3c(=O)c(C(=O)O)cn(C4CC4)c3c2OC)C1 (stereo unspecified) | Potency | inactive
CCOc1cc(N)c(Cl)cc1C(=O)NCC1CN(Cc2ccc(F)cc2)CCO1 (stereo unspecified) | Potency | 13.5 µM (active)
C1CCC(C(CC2CCCCN2)C2CCCCC2)CC1 (stereo unspecified) | Potency | 13.5 µM (active)

# query: Potency of entry CN1CCN(c2c(F)cc3c(=O)c(C(=O)O)cn4c3c2OCN4C)CC1
inactive

Can you look up the measured Potency of Nc1[nH]c(=O)ncc1F for me?
inactive

So what does the record say about Potency for C[C@]12C=CC(=O)C=C1CC[C@@H]1[C@@H]2C(=O)C[C@@]2(C)[C@H]1CC[C@]2(O)C(=O)CO ?
inactive

For the molecule shown here, Cn1nnc2c(C(N)=O)ncn2c1=O , give the reported Potency.
inactive

Please look up its Potency: S=P(N1CC1)(N1CC1)N1CC1
inactive

Which value of Potency has been reported for Nc1ccc(S(=O)(=O)Nc2ccccn2)cc1 in the records?
inactive

* * *

test name: Quantitative high throughput screen for delayed death inhibitors of the malarial parasite plastid, 96 hour incubation (AID 488745); also: nearly all actives have a fitted effect of over 70% in size
measurement conditions: Plasmodium falciparum growth; series mostly up to 28.7 µM
Records with an inconclusive call do not appear. Calls of active or inactive are those of the source. Calls follow the shape of the dose curve; as a rule, active = well fitted inhibition curve with a large enough effect; inconclusive = small, poorly fitted or top-dose-only effect, or effect the other way; inactive = no such curve, though single readings can be large or run the other way.
Choose one outcome from this list and give only that: active, inactive

molecule | category label
Cc1ccc(S(=O)(=O)N[C@@H](Cc2ccccc2)C(=O)CCl)cc1 | inactive
CCN1CCCC1CNC(=O)c1cc(S(N)(=O)=O)ccc1OC (configuration not stated) | inactive
NC(=O)c1cccc(N)c1 | inactive

// return assay outcome for COc1cc2ncnc(Nc3cccc(Cl)c3)c2cc1OC
active

* * *

test name: qHTS of pediatric cancer cell lines to identify multiple opportunities for drug repurposing: Confirmatory screen for RD cells (AID 1347124);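 also: cells exposed to compound for 48 h before viability readout; % is scaled to controls: 0 for no effect and ±100 for the full control effect; nearly all actives have a fitted effect of over 65% in size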
measurement conditions: RD rhabdomyosarcoma cell viability; series mostly up to 45.9 µM
Records with an inconclusive call do not appear. Activity calls are given as the source filed them. Calls come from the whole dose curve; as a rule, active = well fitted cell-killing curve with a large enough effect; inconclusive = small, poorly fitted or top-dose-only effect, or effect the other way; inactive = no such curve, though single readings can be large or run the other way.
Valid outcomes are listed here; reply with one: active, inactive

compound | category label
NC(=O)c1cccnc1 | inactive

Let's switch to this compound now.
Look up the recorded call for O=NN(CCCl)C(=O)NC1CCCCC1 in this test.
inactive

* * *

Tested on: MKL-1
test name: qHTS assay to identify novel small-molecules to repurpose for Merkel cell carcinoma treatment (AID 1296009); also: % is scaled to controls: 0 for no effect and ±100 for the full control effect; nearly all actives have a fitted effect of over 60% in size
measurement conditions: MCC and control cell lines, CellTiter-Glo viability, 72 h; series mostly up to 46 µM
Results filed as inconclusive are left out. The source made the active and inactive calls. Calls follow the shape of the dose curve; as a rule, active = well fitted inhibition curve with a large enough effect; inconclusive = small, poorly fitted or top-dose-only effect; inactive = flat fitted curve, though single readings scatter.
Give one outcome, nothing more. List: active, inactive

compound | category label
CCn1cc(C(=O)O)c(=O)c2cc(F)c(N3CCNCC3)cc21 | inactive

Call for entry COc1cc2c(Nc3ccc(Br)cc3F)ncnc2cc1OCC1CCN(C)CC1 :
inactive

Identify the outcome logged in this assay for the compound shown: CNS(=O)(=O)CCc1ccc2[nH]cc(C3CCN(C)CC3)c2c1
inactive

Recorded call for CCN(C)C(=O)Oc1cccc([C@H](C)N(C)C)c1 ?
inactive

* * *

study target: Nuclear receptor ROR-gamma (Homo sapiens) (UniProt P51449)
Sequence (P51449 whole entry, looked up): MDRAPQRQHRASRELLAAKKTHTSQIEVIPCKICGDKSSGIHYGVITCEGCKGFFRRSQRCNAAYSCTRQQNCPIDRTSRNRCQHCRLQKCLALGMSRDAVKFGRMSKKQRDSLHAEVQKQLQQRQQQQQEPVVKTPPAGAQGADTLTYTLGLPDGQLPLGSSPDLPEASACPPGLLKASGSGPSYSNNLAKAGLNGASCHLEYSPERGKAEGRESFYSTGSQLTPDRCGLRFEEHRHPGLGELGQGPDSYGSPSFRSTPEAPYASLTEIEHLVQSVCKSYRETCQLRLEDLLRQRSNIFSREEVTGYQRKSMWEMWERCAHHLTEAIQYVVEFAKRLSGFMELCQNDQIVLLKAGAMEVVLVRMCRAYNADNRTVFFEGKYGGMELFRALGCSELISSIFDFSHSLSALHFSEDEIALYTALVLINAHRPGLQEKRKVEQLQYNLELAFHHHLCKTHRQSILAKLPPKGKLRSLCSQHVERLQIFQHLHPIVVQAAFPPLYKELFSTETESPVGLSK
test name: qHTS assay for small molecule antagonists of the retinoid-related orphan receptor gamma (ROR-gamma) signaling pathway (AID 651802); also: nearly all actives have a fitted effect of over 60% in size
measurement conditions: ROR-gamma antagonist cell reporter assay; series mostly up to 92.2 µM
Records with an inconclusive call do not appear. Calls of active or inactive are those of the source. Calls come from the whole dose curve; as a rule, active = well fitted inhibition curve with a large enough effect; inconclusive = small, poorly fitted or top-dose-only effect; inactive = no such curve, though single readings can be large or run the other way.
Please state which outcome applies, choosing from Y (active), N (inactive)

Some solved cases for reference:
smiles entry | category label
Cc1nnc(NS(=O)(=O)c2ccc(N)cc2)s1 | N
NNC(=O)c1ccncc1 | N
Cc1ccnc2c1NC(=O)c1cccnc1N2C1CC1 | N
C[C@]12C=CC(=O)C=C1CC[C@@H]1[C@@H]2C(=O)C[C@@]2(C)[C@H]1CC[C@]2(O)C(=O)CO | N
CN(C)c1ccc(C(=C2C=CC(=[N+](C)C)C=C2)c2ccc(N(C)C)cc2)cc1 | Y
COc1ccc2cc3[n+](cc2c1OC)CCc1cc2c(cc1-3)OCO2 | N

Switching to the query record.
Lab log entry: Cc1ncc([N+](=O)[O-])n1CCO — outcome as called in the assay?
N
